# System: NF-κB
# Procedure Text: NFkB-luc reporter in HEK293 cells with empty vector control
# Assay type: cell-based, human
# Measurement Conditions: Homo sapiens, HEK293, 16 h, luciferase signal, read-out: Fold Increase Over DMSO Control, HEK 293 Vector
Measured Quantity: fold induction at 10 µM
API doc: respond with a numeric literal and nothing else, no unit.

Data request: Recorded fold induction at 10 µM for COCCc1nc2c(N)nc3ccccc3c2n1CCCCNC(=O)N1CCOCC1 with NF-κB, please?
Data returned: 0.98

Data request: Recorded fold induction at 10 µM for CCCCc1nc2c(N)nc(C)c(C)c2n1CCCCNS(C)(=O)=O with NF-κB, please?
Data returned: 0.99

Data request: Recorded fold induction at 10 µM for CCCCc1nc2c(N)nc3ncccc3c2n1CC(C)C with NF-κB, please?
Data returned: 1.21

Data request: Recorded fold induction at 10 µM for Cc1nc2c(N)nc3ccccc3c2n1CC(C)(C)O.Cl [IRM 1, hydrochloride] with NF-κB, please?
Data returned: 0.86

Data request: Recorded fold induction at 10 µM for CCCCc1nc2c(N)nc3cccnc3c2n1CC(C)C with NF-κB, please?
Data returned: 1.3

Data request: Recorded fold induction at 10 µM for Nc1nc2ccccc2c2c1ncn2CCOCCCc1cccnc1 with NF-κB, please?
Data returned: 1

----------
# System Under Test: human TLR7 (Homo sapiens, UniProt Q9NYK1)
# Construct: expressed in transfected cells; host or cells: HEK293 (pIRES, G-418 selected)
# Sequence (Q9NYK1 27-1049): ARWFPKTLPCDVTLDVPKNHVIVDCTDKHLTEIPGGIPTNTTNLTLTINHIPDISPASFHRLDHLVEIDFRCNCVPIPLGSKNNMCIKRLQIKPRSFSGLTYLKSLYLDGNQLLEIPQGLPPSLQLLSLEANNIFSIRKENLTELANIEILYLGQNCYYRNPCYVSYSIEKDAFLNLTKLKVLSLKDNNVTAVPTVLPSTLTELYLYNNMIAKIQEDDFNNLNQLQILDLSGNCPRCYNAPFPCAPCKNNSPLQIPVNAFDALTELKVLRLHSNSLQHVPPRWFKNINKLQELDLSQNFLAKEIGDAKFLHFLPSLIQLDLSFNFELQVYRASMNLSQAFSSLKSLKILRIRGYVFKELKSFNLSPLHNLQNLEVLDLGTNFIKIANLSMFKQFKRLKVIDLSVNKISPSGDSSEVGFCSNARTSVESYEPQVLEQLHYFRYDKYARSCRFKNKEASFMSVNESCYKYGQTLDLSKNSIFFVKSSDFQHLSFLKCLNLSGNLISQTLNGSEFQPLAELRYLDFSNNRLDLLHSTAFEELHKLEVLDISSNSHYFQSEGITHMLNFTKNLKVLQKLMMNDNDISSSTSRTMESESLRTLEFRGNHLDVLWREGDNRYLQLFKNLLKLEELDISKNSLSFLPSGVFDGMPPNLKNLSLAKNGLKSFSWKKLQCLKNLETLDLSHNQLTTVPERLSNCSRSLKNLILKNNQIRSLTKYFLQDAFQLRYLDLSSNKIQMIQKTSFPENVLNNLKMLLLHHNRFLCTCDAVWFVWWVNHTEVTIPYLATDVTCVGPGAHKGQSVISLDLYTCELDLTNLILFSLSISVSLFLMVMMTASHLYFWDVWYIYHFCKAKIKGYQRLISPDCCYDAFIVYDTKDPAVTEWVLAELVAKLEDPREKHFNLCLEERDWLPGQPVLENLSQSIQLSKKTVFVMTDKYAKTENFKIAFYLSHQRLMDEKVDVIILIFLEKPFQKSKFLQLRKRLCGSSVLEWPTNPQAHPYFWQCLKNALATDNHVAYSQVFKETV
# Procedure Text: NFkB-luc reporter in HEK293 cells transfected with human TLR7
# Type: cell-based
# Measurement Conditions: luciferase signal, 10 μM, 16 hours, TLR7 cells
Provide the reported Fold Increase Over DMSO Control, HEK293 TLR7 of each item.
// note: answer is a bare numeric in fold

Data request: Suppose we examine the molecule COCCc1nc2c(N)nc3ccccc3c2n1CCCCNC(=O)c1ccc(-n2cccc2)nc1 [IRM 14] ; what Fold Increase Over DMSO Control, HEK293 TLR7 value has been reported?
Data returned: 1.37

Data request: Suppose we examine the molecule CCCCc1nc2c(N)nc3cccnc3c2s1 [IRM 11] ; what Fold Increase Over DMSO Control, HEK293 TLR7 value has been reported?
Data returned: 1.06

Data request: Suppose we examine the molecule CCCCc1nc2c(N)nc3ccccc3c2n1CCCCNS(C)(=O)=O [IRM 12] ; what Fold Increase Over DMSO Control, HEK293 TLR7 value has been reported?
Data returned: 15.33

Data request: Suppose we examine the molecule CCCCc1nc2c(N)nc3cccnc3c2n1CC(C)C [IRM 7] ; what Fold Increase Over DMSO Control, HEK293 TLR7 value has been reported?
Data returned: 3.06

Data request: Suppose we examine the molecule Cc1nc2c(N)nc3ccccc3c2n1CC(C)(C)O.Cl [IRM 1] ; what Fold Increase Over DMSO Control, HEK293 TLR7 value has been reported?
Data returned: 3.75

----------
# System Under Test: human TLR7 (Homo sapiens, UniProt Q9NYK1)
# Construct: expressed in transfected cells; host or cells: HEK293 (pIRES, G-418 selected)
# Procedure Text: NFkB-luc reporter in HEK293 cells transfected with human TLR7
# Assay type: cell-based
# Measurement Conditions: luciferase signal, 10 μM, 16 hours, TLR7 cells
Provide the reported Fold Increase Over DMSO Control, HEK293 TLR7 of each item.
Field note: include the unit after the figure.

Data request: Suppose we examine the compound CCCCc1nc2c(N)nc3c(c2n1CC(C)C)NCCC3 [IRM 8] ; what Fold Increase Over DMSO Control, HEK293 TLR7 value has been reported?
Data returned: 4.59 fold

Data request: Suppose we examine the compound COCCc1nc2c(N)nc3ccccc3c2n1CCCCNC(=O)N1CCOCC1 [IRM 16] ; what Fold Increase Over DMSO Control, HEK293 TLR7 value has been reported?
Data returned: 1.51 fold

Data request: Suppose we examine the compound CCCCc1nc2c(N)nc3ncccc3c2n1CC(C)C [IRM 5] ; what Fold Increase Over DMSO Control, HEK293 TLR7 value has been reported?
Data returned: 1.13 fold

Data request: Suppose we examine the compound CCCCc1nc2c(N)nc3cnccc3c2n1CC(C)C [IRM 6] ; what Fold Increase Over DMSO Control, HEK293 TLR7 value has been reported?
Data returned: 1.25 fold

Data request: Suppose we examine the compound Nc1nc2ccccc2c2c1nc1n2CCCC1 [IRM 13] ; what Fold Increase Over DMSO Control, HEK293 TLR7 value has been reported?
Data returned: 2.39 fold

Data request: Suppose we examine the compound CCCCc1nc2c(N)nc3ccccc3c2n1CCNS(C)(=O)=O [IRM 15] ; what Fold Increase Over DMSO Control, HEK293 TLR7 value has been reported?
Data returned: 1.88 fold

Data request: Suppose we examine the compound C[C@H](c1ccccc1)n1cnc2c(N)nc3ccccc3c21 [IRM 10] ; what Fold Increase Over DMSO Control, HEK293 TLR7 value has been reported?
Data returned: 2.55 fold

Data request: Suppose we examine the compound Nc1nc2ccccc2c2c1ncn2CCOCCCc1cccnc1 [IRM 4] ; what Fold Increase Over DMSO Control, HEK293 TLR7 value has been reported?
Data returned: 4.06 fold
